Collected ELISA (T/B) values appear next to each entry.
- ASSAY TARGET: T1, human plasma kallikrein (human, UniProt P03952 20-390; P03952 391-638)
- T1 construct: also called pKal; Human pKal
- T1 sequence (P03952 20-390, chain 1 of 2): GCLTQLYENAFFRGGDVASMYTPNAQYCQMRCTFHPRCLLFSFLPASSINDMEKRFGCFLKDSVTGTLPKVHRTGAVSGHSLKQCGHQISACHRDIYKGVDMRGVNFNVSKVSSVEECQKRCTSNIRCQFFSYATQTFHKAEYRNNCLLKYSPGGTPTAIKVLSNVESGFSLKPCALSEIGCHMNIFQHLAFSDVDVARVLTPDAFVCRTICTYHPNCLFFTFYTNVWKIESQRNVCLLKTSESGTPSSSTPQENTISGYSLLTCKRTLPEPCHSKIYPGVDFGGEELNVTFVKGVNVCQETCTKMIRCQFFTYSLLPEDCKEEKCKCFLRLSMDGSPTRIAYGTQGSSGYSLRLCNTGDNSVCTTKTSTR
- T1 sequence (P03952 391-638, chain 2 of 2): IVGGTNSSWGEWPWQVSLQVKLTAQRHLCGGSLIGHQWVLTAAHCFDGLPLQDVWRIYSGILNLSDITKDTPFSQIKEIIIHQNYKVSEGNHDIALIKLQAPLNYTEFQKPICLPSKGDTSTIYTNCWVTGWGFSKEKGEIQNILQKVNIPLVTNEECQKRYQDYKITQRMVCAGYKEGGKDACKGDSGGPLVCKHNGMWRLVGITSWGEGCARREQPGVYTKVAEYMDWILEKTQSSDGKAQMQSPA
- PROTOCOL: ELISA, biotinylated pKal signal over streptavidin background

# BINDER, ELISA (T/B)
measured = [
    ("M29-G10 (Fab, V domains shown, HC as printed runs into CH1) VH: EVQLLESGGGLVQPGGSLRLSCAASGFTFSFYKMIWVRQAPGKGLEWVSSISSSGGSTQYADSVKGRFTISRDNSKNTLYLQMNSLRAEDTAVYYCARDRVDLGYLDYWGQGTLVTVSS VL: DIQMTQSPSSLSSSVGDSATITCRASQSISIYLNWYQQKPGKAPKILIYGASQLESGVPSRFSGSGSGTDFTLTVSGLQPEDFATYWCQQSYNVPYTFGQGTKLEIK", "16.4 T/B"),
    ("M27-G09 (Fab, V domains shown, HC as printed runs into CH1) VH: EVQLLESGGGLVQPGGSLRLSCAASGFTFSEYDMAWVRQAPGKGLEWVSYIVSSGGFTSYADSVKGRFTISRDNSKNTLYLQMNSLRAEDTAVYYCTTWAGWIAAADYWGQGTLVTVSS VL: DIQMTQSPSSVSASVGDRITITCRTRQSISNYLNWYQQKPGEPPKLLIFAASSLQSGVPSRFSGSGTGTEFTLTISSLQPEDLAIYYCQQSYDIPFTFGQGTKLEIK", "2.2 T/B"),
]
